# study target: intestinal PYY-preferring receptors (Rattus norvegicus)
# Sequence (Q9ERC0 1-381): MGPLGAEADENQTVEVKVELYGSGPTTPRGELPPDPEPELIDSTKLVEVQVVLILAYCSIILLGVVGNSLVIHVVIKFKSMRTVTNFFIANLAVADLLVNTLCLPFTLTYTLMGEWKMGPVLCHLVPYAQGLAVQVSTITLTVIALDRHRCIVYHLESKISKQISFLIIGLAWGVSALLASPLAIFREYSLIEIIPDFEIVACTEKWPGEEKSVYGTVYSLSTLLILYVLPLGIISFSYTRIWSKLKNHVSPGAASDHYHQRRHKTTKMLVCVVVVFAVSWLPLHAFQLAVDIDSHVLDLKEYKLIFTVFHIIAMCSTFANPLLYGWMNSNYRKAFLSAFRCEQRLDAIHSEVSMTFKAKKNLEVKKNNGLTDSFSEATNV
# experimental context: BINDING IC50 (nM), Table 1; 125I-PYY, rat jejunal membranes; mean of three separate experiments
Ends that are not written are not given here.
Entries and their IC50
A number alone suffices; assume nM.

Example entries begin here.
[
  {
    "substance": "ASLRHYENLVTRQRY-NH2 [[Glu^28]PYY(22-36), A S L R H Y [Glu] N L V T R Q R Y--NH2]",
    "IC50 (nM)": 199
  },
  {
    "substance": "Ac-ASLRHYENLVTRQRY-NH2 [N-α-Ac-[Glu^28]PYY(22-36)]",
    "IC50 (nM)": 44.7
  },
  {
    "substance": "Ac-ASLRHFLNLVTRQRY-NH2 [N-α-Ac-[Phe^27]PYY(22-36)]",
    "IC50 (nM)": 0.8
  }
]

Now look at this entry.
Prompt: For the substance shown here, ASLRHYLNLVARQRY-NH2 [[Ala^32]PYY(22-36), A S L R H Y L N L V [Ala] R Q R Y--NH2] , give the reported IC50.
Completion: 71
